Tested on: DAF-12 nuclear receptor (Haemonchus contortus)
Protocol: hcDAF-12 driven luciferase reporter activation – cell-based, luminescence, HEK293, lit1-tk-luc reporter, primary screen (AID 652067)
Experimental Conditions: HEK293 hcDAF-12 lit1-tk-luc reporter, at 6.8 µM, active compounds read high, 0% DMSO, 100% Δ7-dafachronic acid
Screen size: about 370,000 compounds; about 5,400 (1.5%) were called active. The full list was thinned out, with actives kept by preference.
The following molecules are listed with their measured activation values.
Number in %, nothing else.

Entry Cc1[nH]c2ccccc2c1CC(=O)Nc1ccc(Nc2cccnc2)c(-c2cccc(Cl)c2)c1 has what activation?
1.03

Another molecule to look at: CCc1cc2c(=O)c(-c3ccon3)c(N)oc2cc1OC
7.31

Check Cc1cccc(N2CCN(C(=O)c3cccc(S(=O)(=O)N4CCc5ccccc5C4)c3)CC2C)c1 (stereo unspecified) too.
-2.28

Also check Oc1ccc(/C=C/c2c(F)cccc2F)c2cccnc12
-3.66

Try CCn1c(NC(=O)c2nn(C)cc2Br)nc2ccccc21 next.
-2.93

Further cases:
Could you share which activation value was measured for N#Cc1ccc(N2Cc3ccccc3/C2=N/C(=O)Nc2ccc(Cl)cc2)cc1 ?
-0.08

Again, but for Clc1ccc(-n2c(SC/C=C/c3ccccc3)nnc2-c2ccco2)cc1
-1.47

Moving on to CCCCC(=O)N[C@@H]1CC[C@@]23CCCN2C(=O)CCC[C@H]3[C@H]1C
0.2

Now this one: Cc1nn(C(=O)c2ccoc2C)c(N)c1-c1ccccc1
12.4

And CN1CCCCC(NC(=O)C(C)(C)C)C1=O (stereo unspecified) ?
-1.55

Can you handle CCCCCCCCN1C(=O)[C@@H](CC(=O)NCCCC)C[C@@]2(C(=O)OC)C1=C[C@H](C(C)(C)C)O[C@@H]2C next?
2.12

* * *

System: DAF-12 nuclear receptor (Haemonchus contortus)
Protocol: hcDAF-12 driven luciferase reporter activation – cell-based, luminescence, HEK293, lit1-tk-luc reporter, primary screen (AID 652067)
Experimental Conditions: HEK293 hcDAF-12 lit1-tk-luc reporter, at 6.8 µM, 0% DMSO, 100% Δ7-dafachronic acid
About 5,400 (1.5%) of roughly 370,000 compounds were called active.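 How the source made its calls: active means activation above the mean of all tested compounds plus 3 SD (cut at about 5.5% in these data); inactive means the rest.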 This excerpt belongs to a sample that is enriched for actives.
// classify into T = active, F = inactive

GET /call?item= Cc1cnc(C)c(N2CCN(C(=O)C3CCC(=O)N(CCc4cccc(F)c4)C3)CC2)n1 (stereo not drawn) returns the recorded outcome of this test.
F

More entries:
Query: recorded result category for CCn1cc(CN2CCN(CC(C)(C)C)C(CCO)C2)c2ccccc21 (stereo not drawn) in this test
T

Moving on to the next compound: CCCCN(C)C(=O)C1CCN(Cc2ccccn2)CC1
F

* * *

Tested on: DAF-12 nuclear receptor (Haemonchus contortus)
Protocol: hcDAF-12 driven luciferase reporter activation – cell-based, luminescence, HEK293, lit1-tk-luc reporter, primary screen (AID 652067)
Experimental Conditions: HEK293 hcDAF-12 lit1-tk-luc reporter, at 6.8 µM, active compounds read high, 0% DMSO, 100% Δ7-dafachronic acid
Hit rate of the full screen: of about 370,000 compounds, about 5,400 (1.5%) were called active. For the sample, actives were picked, then their nearest neighbours and some compounds at random.
Measurement Type: activation

Please state recorded activation (tested on DAF-12 nuclear receptor (Haemonchus contortus)) of C=CCN=C1NC(c2ccccc2)C(C(=O)OC)=C(C)N1Cc1ccc(C(F)(F)F)cc1 (stereo unspecified)
0.87% (inactive)

Try COC1=C[C@H](C(=O)NCCNC(C)=O)[C@H](C)[C@@H](c2ccccc2)CC1=O next.
-2.16% (inactive)

Repeat with COc1cc(C(O)c2nc3ccccc3n2C)cc(OC)c1OC (stereo unspecified)
-1.25% (inactive)

Same for O=C(O)c1ccccc1-c1ccccc1C(=O)Nc1ccccc1Br
1.04% (inactive)

What would you report for Cc1ccc(NC(=O)Nc2cc(C)nn2-c2ccccc2)cc1 ?
-0.41% (inactive)

Now consider the entry below.
Which measured activation belongs to Cc1cccc(N2CCN(Cc3c(C)n(C)n(-c4ccccc4)c3=O)CC2)c1C , tested on DAF-12 nuclear receptor (Haemonchus contortus)?
-2.12% (inactive)

* * *

System: DAF-12 nuclear receptor (Haemonchus contortus)
Protocol: hcDAF-12 driven luciferase reporter activation – cell-based, luminescence, HEK293, lit1-tk-luc reporter, primary screen (AID 652067)
Experimental Conditions: HEK293 hcDAF-12 lit1-tk-luc reporter, at 6.8 µM, 0% DMSO, 100% Δ7-dafachronic acid
Screen size: about 370,000 compounds; about 5,400 (1.5%) were called active.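 How the source made its calls: active means activation above the mean of all tested compounds plus 3 SD (cut at about 5.5% in these data); inactive means the rest.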 Many of the other results were omitted from the sample, so actives are more common in it than they were.
API: response.call in active, inactive

Some solved entries appear below for comparison.
Hi, sorry to bother you, what did the test record for CCCCOCCCNC(=O)C[C@H]1C[C@@]2(C(=O)OC)C(=C[C@H](COCc3ccccc3)O[C@@H]2C)N(Cc2cccc3ccccc23)C1=O ?
inactive

Cc1ccc(NC(=O)c2ccc(Cl)nc2)cc1S(=O)(=O)N1CCOCC1 ?
inactive

Follow-up item: Cc1ccc(-n2c(SCC(=O)Nc3ccc(S(=O)(=O)Nc4nccs4)cc3)nnc2-c2ccccn2)cc1
inactive

Next:
# lookup: test call for C/C(Cc1ccccc1)=N\NC(=O)CNC(=O)c1ccc2c(c1)OCCO2
inactive

What about CC(OC(=O)c1cc2ccccc2[nH]1)C(=O)N(C)c1ccccc1 (centres undefined) ?
inactive

Moving on to CN(C)CCNC(=O)c1ccc(Cl)c2cc3ccccc3nc12
active

* * *

Test system: DAF-12 nuclear receptor (Haemonchus contortus)
Protocol: hcDAF-12 driven luciferase reporter activation – cell-based, luminescence, HEK293, lit1-tk-luc reporter, primary screen (AID 652067)
Experimental Conditions: HEK293 hcDAF-12 lit1-tk-luc reporter, at 6.8 µM, 0% DMSO, 100% Δ7-dafachronic acid
In all, about 370,000 compounds went through this assay and about 5,400 (1.5%) were called active.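 How the source made its calls: active means activation above the mean of all tested compounds plus 3 SD (cut at about 5.5% in these data); inactive means the rest.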 The entries come from a sample that favours actives as a whole.
Thanks in advance; please answer with one of these: active, inactive

Consider the worked cases shown below.
What call does the record list for O=C(C(=O)N1CCC(CNS(=O)(=O)Cc2ccccc2)CC1)c1cc2ccccc2o1 ?
inactive

Item: O=C(N/N=C/c1ccc(OCC2COCCO2)cc1)c1ccc(Br)cc1 (stereo not drawn)
inactive

How about this molecule: Cc1cc(OC(=O)c2ccccc2Cl)ccc1N1C(=O)CCC1=O
inactive

New cases:
Short answer needed: outcome of this test for COc1cc(/C=C/C(=O)OCC(=O)NCCCc2ccccc2)ccc1O ?
inactive

Same again, this time with COc1ccccc1C(=O)NC(=O)COC(=O)C1CC1
inactive

Please do the same for CCN1CCN(C(=O)C2(NC(=O)Nc3cccc(F)c3)CCCCC2)CC1 as well.
inactive

// same read-out, input: CCN1C(=O)N[C@@H]2C[C@H](C(=O)N3CCCC3)[C@H](C)[C@H](c3ccccc3)C[C@@H]21
inactive

Ok, now C[C@H](CO)N1C[C@H](C)[C@@H](CN(C)C(=O)Nc2ccccc2F)OCc2cn(nn2)CCCC1=O
inactive

Field entry: Cc1ccc(C(=O)NCC(=O)O)s1
inactive

Subsequent entry: CC(C)CNc1cccc2c1S(=O)(=O)N[C@H](C)CO2
inactive

Would you kindly repeat that for CCOC(=O)c1c(NC(=S)SC)sc(C(=O)N2CCc3ccccc3C2)c1C ?
inactive

Please do the same for CCOc1ccccc1NC(=O)c1cccnc1 as well.
inactive

Try this molecule next: COc1ccccc1NC(=O)c1cc(Cl)nnc1Cl
inactive

// repeat for O=C(NC1CCCCN(Cc2ccc(Cl)cc2)C1=O)c1ccc(Br)cc1 (stereo not drawn) and report
inactive

* * *

Test system: DAF-12 nuclear receptor (Haemonchus contortus)
Protocol: hcDAF-12 driven luciferase reporter activation – cell-based, luminescence, HEK293, lit1-tk-luc reporter, primary screen (AID 652067)
Experimental Conditions: HEK293 hcDAF-12 lit1-tk-luc reporter, at 6.8 µM, active compounds read high, 0% DMSO, 100% Δ7-dafachronic acid
Out of some 370,000 compounds screened, about 5,400 (1.5%) were called active. Shown is part of a subset that was picked to be rich in actives.
Measurement Type: activation (%)
Respond numerically; units are % and should not be typed.

Known results for compounds:
Need activation of COc1ccc(-n2c(SCC(=O)NC3CCCC3)nnc2-c2ccncc2)cc1 , thanks.
-2.34

Another compound: O=C(CSC(=S)N1CCCCC1)c1c(F)cccc1F
6.39

Here is the next compound: O=C(NCc1ccco1)C1CCCN(S(=O)(=O)c2ccc(Cl)s2)C1 (stereo not given)
-2.39

Same again, this time with COc1ccc(N2CCN(C(=O)CCc3nc(-c4ccc(C)cc4)no3)CC2)cc1
-1.97

Entry Fc1ccc(CNc2nc3ccccc3n3nnnc23)cc1 please
5.66

How about O=C(Cc1ccc(Cl)cc1)NC(=S)Nc1ccccc1O ?
-0.62

Item: O=C(Cn1c(-c2cncs2)nc2ccccc21)NC1CCCC1
-0.67

// query: Cc1ccc2nc(-c3cccnc3)c(NC3CCCC3)n2c1
-1.32

Let us now turn to COC(=O)C(NC(C)=O)(Nc1nc2c(s1)CCCC2)C(F)(F)F (stereo not given)
1.23

Try CC1CCCCC1NC(=O)Cn1c(=O)cnc2ccccc21 (stereo not given) next.
0.69

Continuing:
Name the reported activation value associated with the compound O=C(NC(=O)c1ccccc1)Nc1ccccc1O
12.2

Would you kindly repeat that for CCn1c(SCC(=O)NCC2CCCO2)nc2ccccc21 (stereo not given) ?
1.17

Next up: CN(CC(=O)Nc1ccc(Cl)cc1)CC(=O)Nc1cccc2ccccc12
-0.93
